Where do the numbers come from? From patent US10487348B2.

# Substrate: NC(=O)C1=CN([C@@H]2O[C@H](COP(=O)(O)OP(=O)(O)OC[C@H]3O[C@@H](n4cnc5c(N)ncnc54)[C@H](O)[C@@H]3O)[C@@H](O)[C@H]2O)C=CC1
# assay-overview: purified protein, by the assay type
# experimental-setup: other: Table 15, substrate NADH; tag N; apparent values; pH 8.0
Just a reminder that ties go to Not satisfied: only Vmax strictly below 200 µmol/min/mg counts as Satisfied.

Inquiry: Does this protein meet the criterion Vmax < 200 µmol/min/mg? Comamonas testosteroni 3α-HSDH dual mutant [P185A/T188A], N-terminal hexahistidine tag (Comamonas testosteroni; P185A/T188A) (protein) MSIIVISGCATGIGAATRKVLEAAGHQIVGIDIRDAEVIADLSTAEGRKQAIADVLAKCSKGMDGLVLCAGLGPQTKVLGNVVSVNYFGATELMDAFLPALKKGHQPAAVVISSVASAHLAFDKNPLALALEAGEEAKARAIVEHAGEQGGNLAYAGSKNALTVAVRKRAAAWGEAGVRLNTIAAGAAETPLLQAGLQDPRYGESIAKFVPPMGRRAEPSEMASVIAFLMSPAASYVHGAQIVIDGGIDAVMRPTQF
Reply text: Satisfied

Inquiry: Also need Comamonas testosteroni 3α-HSDH mutant [T188A], N-terminal hexahistidine tag (Comamonas testosteroni; T188A) (protein) MSIIVISGCATGIGAATRKVLEAAGHQIVGIDIRDAEVIADLSTAEGRKQAIADVLAKCSKGMDGLVLCAGLGPQTKVLGNVVSVNYFGATELMDAFLPALKKGHQPAAVVISSVASAHLAFDKNPLALALEAGEEAKARAIVEHAGEQGGNLAYAGSKNALTVAVRKRAAAWGEAGVRLNTIAPGAAETPLLQAGLQDPRYGESIAKFVPPMGRRAEPSEMASVIAFLMSPAASYVHGAQIVIDGGIDAVMRPTQF , thanks.
Reply text: Not satisfied

Inquiry: Also need Comamonas testosteroni 3α-HSDH dual mutant [L68A/T188A], N-terminal hexahistidine tag (Comamonas testosteroni; L68A/T188A) (protein) MSIIVISGCATGIGAATRKVLEAAGHQIVGIDIRDAEVIADLSTAEGRKQAIADVLAKCSKGMDGLVACAGLGPQTKVLGNVVSVNYFGATELMDAFLPALKKGHQPAAVVISSVASAHLAFDKNPLALALEAGEEAKARAIVEHAGEQGGNLAYAGSKNALTVAVRKRAAAWGEAGVRLNTIAPGAAETPLLQAGLQDPRYGESIAKFVPPMGRRAEPSEMASVIAFLMSPAASYVHGAQIVIDGGIDAVMRPTQF , thanks.
Reply text: Not satisfied

Inquiry: Also need Comamonas testosteroni 3α-HSDH mutant [T188S], N-terminal hexahistidine tag (Comamonas testosteroni; T188S) (protein) MSIIVISGCATGIGAATRKVLEAAGHQIVGIDIRDAEVIADLSTAEGRKQAIADVLAKCSKGMDGLVLCAGLGPQTKVLGNVVSVNYFGATELMDAFLPALKKGHQPAAVVISSVASAHLAFDKNPLALALEAGEEAKARAIVEHAGEQGGNLAYAGSKNALTVAVRKRAAAWGEAGVRLNTIAPGASETPLLQAGLQDPRYGESIAKFVPPMGRRAEPSEMASVIAFLMSPAASYVHGAQIVIDGGIDAVMRPTQF , thanks.
Reply text: Satisfied

Inquiry: Also need Comamonas testosteroni 3α-HSDH mutant [L68A], N-terminal hexahistidine tag (Comamonas testosteroni; L68A) (protein) MSIIVISGCATGIGAATRKVLEAAGHQIVGIDIRDAEVIADLSTAEGRKQAIADVLAKCSKGMDGLVACAGLGPQTKVLGNVVSVNYFGATELMDAFLPALKKGHQPAAVVISSVASAHLAFDKNPLALALEAGEEAKARAIVEHAGEQGGNLAYAGSKNALTVAVRKRAAAWGEAGVRLNTIAPGATETPLLQAGLQDPRYGESIAKFVPPMGRRAEPSEMASVIAFLMSPAASYVHGAQIVIDGGIDAVMRPTQF , thanks.
Reply text: Satisfied

Inquiry: Also need Comamonas testosteroni 3α-HSDH dual mutant [L68A/T188S], N-terminal hexahistidine tag (Comamonas testosteroni; L68A/T188S) (protein) MSIIVISGCATGIGAATRKVLEAAGHQIVGIDIRDAEVIADLSTAEGRKQAIADVLAKCSKGMDGLVACAGLGPQTKVLGNVVSVNYFGATELMDAFLPALKKGHQPAAVVISSVASAHLAFDKNPLALALEAGEEAKARAIVEHAGEQGGNLAYAGSKNALTVAVRKRAAAWGEAGVRLNTIAPGASETPLLQAGLQDPRYGESIAKFVPPMGRRAEPSEMASVIAFLMSPAASYVHGAQIVIDGGIDAVMRPTQF , thanks.
Reply text: Satisfied
